- Test system: Rattus norvegicus
- assay.summary: Gastrointestinal toxicity in fasted albino rat assessed ulcer index at 50 mg/kg, po administered for 3 days measured after 1 hr of last dose
- Format: organism-based
- Set-up: dose 50 mg/kg, route oral
- test.settings: in vivo
Task for the reader: assign each of the following compounds its reported UI.
One number for each entry.

Batch lookup, UI per entry.
1. NC(=S)N1N=C(c2ccccc2)CC1c1ccc(OCCOc2ccc(C3CC(c4ccccc4)=NN3C(N)=S)cc2)cc1 (centres undefined)
2. NC(=S)N1N=C(c2ccc(F)cc2)CC1c1ccccc1OCCOc1ccccc1C1CC(c2ccc(F)cc2)=NN1C(N)=S (centres undefined)
3. NC(=S)N1N=C(c2ccc(Cl)cc2)CC1c1ccccc1OCCOc1ccccc1C1CC(c2ccc(Cl)cc2)=NN1C(N)=S (centres undefined)

Reply:
18.5
11.51
12.16

Ask: Return reported UI; argument: NC(=S)N1N=C(c2cccs2)CC1c1ccccc1OCCOc1ccccc1C1CC(c2cccs2)=NN1C(N)=S (centres undefined)
Reply: 14.33

----------
Task for the reader: assign each of the following molecules its reported ED50.
- System: Rattus norvegicus
- assay.summary: Antiinflammatory activity in ip dosed Wister albino rat assessed as inhibition of carrageenan-induced paw edema volume administered 1 hr before carrageenan challenge measured after 4 hrs
- Assay type: functional
Give bare numbers, in mg/kg.

INSERT INTO results (molecule, observed_property, measurement_unit, value_observed) VALUES
  ('NC(=S)N1N=C(c2ccc(F)cc2)CC1c1ccccc1OCCOc1ccccc1C1CC(c2ccc(F)cc2)=NN1C(N)=S (centres undefined)', 'ED50', 'mg/kg', 40.8),
  ('NC(=S)N1N=C(c2ccc(Cl)cc2)CC1c1ccccc1OCCOc1ccccc1C1CC(c2ccc(Cl)cc2)=NN1C(N)=S (centres undefined)', 'ED50', 'mg/kg', 34.6);

Batch lookup, ED50 per entry.
1. NC(=S)N1N=C(c2cccs2)CC1c1ccccc1OCCOc1ccccc1C1CC(c2cccs2)=NN1C(N)=S (centres undefined)
2. NC(=S)N1N=C(c2ccccc2)CC1c1ccc(OCCOc2ccc(C3CC(c4ccccc4)=NN3C(N)=S)cc2)cc1 (centres undefined)

Reply:
[28.8, 23.1]

----------
- System: Rattus norvegicus
- assay.summary: Antiinflammatory activity in Wister albino rat assessed as inhibition of carrageenan-induced paw edema volume at 20 mg/kg, ip administered 1 hr before carrageenan challenge measured after 4 hrs
- Assay type: functional
- test.settings: route intraperitoneal
Task for the reader: assign each of the following compounds its reported inhibition in vivo at 20 mg/kg.
Answers are plain numbers, in %.

Some solved cases for reference:
INSERT INTO assay_data (compound, observed_property, value_observed) VALUES
  ('NC(=S)N1N=C(c2cccs2)CC1c1ccccc1OCCOc1ccccc1C1CC(c2cccs2)=NN1C(N)=S (centres undefined)', 'inhibition in vivo at 20 mg/kg', 61.6),
  ('NC(=S)N1N=C(c2ccc(F)cc2)CC1c1ccccc1OCCOc1ccccc1C1CC(c2ccc(F)cc2)=NN1C(N)=S (centres undefined)', 'inhibition in vivo at 20 mg/kg', 43.2),
  ('NC(=S)N1N=C(c2ccccc2)CC1c1ccc(OCCOc2ccc(C3CC(c4ccccc4)=NN3C(N)=S)cc2)cc1 (centres undefined)', 'inhibition in vivo at 20 mg/kg', 79.5);

Ask: API: value(readout= inhibition in vivo at 20 mg/kg, system= Rattus norvegicus, query= NC(=S)N1N=C(c2ccc(Cl)cc2)CC1c1ccccc1OCCOc1ccccc1C1CC(c2ccc(Cl)cc2)=NN1C(N)=S (centres undefined) )
Reply: 53.7
